Molecular target: Myosin light chain kinase, smooth muscle (Homo sapiens)
Sequence (Q15746 whole entry): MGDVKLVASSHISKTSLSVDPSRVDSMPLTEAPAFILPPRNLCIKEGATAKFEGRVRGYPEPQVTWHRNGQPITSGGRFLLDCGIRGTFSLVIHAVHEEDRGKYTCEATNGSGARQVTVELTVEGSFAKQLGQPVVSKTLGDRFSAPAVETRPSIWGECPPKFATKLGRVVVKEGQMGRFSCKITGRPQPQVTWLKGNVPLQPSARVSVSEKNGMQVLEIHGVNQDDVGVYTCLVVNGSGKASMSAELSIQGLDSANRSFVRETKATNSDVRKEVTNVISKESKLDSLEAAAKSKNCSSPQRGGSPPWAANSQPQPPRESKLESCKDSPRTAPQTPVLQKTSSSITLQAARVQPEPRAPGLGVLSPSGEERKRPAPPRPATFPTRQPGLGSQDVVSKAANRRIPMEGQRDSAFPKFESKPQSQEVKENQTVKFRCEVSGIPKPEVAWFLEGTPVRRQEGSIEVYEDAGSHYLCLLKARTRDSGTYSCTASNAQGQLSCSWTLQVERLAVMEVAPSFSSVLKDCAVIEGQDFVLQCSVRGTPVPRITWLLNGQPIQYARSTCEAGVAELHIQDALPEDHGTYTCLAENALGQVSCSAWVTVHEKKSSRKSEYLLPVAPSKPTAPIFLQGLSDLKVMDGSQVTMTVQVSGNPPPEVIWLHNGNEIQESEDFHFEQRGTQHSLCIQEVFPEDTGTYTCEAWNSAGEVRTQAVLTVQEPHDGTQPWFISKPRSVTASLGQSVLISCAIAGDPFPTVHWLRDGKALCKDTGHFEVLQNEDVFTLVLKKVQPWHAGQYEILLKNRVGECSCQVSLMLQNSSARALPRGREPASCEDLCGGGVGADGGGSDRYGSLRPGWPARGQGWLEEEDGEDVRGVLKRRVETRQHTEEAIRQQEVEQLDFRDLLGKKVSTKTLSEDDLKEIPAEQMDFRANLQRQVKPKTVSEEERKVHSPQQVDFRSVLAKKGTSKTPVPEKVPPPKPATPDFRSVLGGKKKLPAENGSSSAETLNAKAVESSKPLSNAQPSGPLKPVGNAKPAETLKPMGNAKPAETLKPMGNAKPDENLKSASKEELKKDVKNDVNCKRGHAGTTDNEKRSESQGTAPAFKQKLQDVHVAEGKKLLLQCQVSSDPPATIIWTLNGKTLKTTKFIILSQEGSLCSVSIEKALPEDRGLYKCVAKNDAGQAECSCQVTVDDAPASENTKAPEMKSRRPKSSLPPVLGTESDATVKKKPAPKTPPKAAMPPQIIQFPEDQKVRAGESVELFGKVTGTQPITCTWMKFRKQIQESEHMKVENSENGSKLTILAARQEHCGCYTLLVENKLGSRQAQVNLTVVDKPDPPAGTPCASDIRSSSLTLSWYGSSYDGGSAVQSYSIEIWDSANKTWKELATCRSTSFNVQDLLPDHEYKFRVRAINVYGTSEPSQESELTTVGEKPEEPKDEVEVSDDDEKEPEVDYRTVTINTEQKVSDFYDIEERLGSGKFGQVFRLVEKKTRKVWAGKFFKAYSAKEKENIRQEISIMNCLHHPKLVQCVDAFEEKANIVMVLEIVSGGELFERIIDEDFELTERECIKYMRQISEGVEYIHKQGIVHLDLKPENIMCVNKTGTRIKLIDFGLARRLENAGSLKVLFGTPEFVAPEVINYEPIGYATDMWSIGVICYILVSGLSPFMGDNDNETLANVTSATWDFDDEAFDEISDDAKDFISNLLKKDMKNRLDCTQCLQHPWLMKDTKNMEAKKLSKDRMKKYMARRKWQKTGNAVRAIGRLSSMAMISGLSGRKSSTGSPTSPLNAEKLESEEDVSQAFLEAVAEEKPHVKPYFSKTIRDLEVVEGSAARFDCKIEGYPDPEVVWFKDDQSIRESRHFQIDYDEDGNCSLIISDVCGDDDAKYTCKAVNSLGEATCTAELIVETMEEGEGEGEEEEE
Assay: Inhibition of MLCK (unknown origin) incubated for 15 mins using [gamma-32P]-ATP by scintillation counting method
Conditions: read-out: IC50
For each of the molecules below, state its pIC50.
One number for each entry, as −log10 of the molar value.

// known answers, use as guide
molecule: CCOC(=O)C1=C(C)NC(OC)N(CC(=O)c2ccc(OC)cc2)C1c1ccc(O)cc1 (stereo not given)
test result: 5.01
--
molecule: CCOC(=O)C1=C(C)NC(OC)N(CC(=O)c2ccc(OC)cc2)C1c1ccc(Cl)cc1 (stereo not given)
test result: 4.74
--
molecule: COC(=O)C1=C(C)N=C2Sc3ccccc3N2C1c1ccccc1Cl (stereo not given)
test result: 5.01
--
molecule: CCOC(=O)C1=C(C)NC(OC)N(CC(=O)c2ccccc2)C1c1ccc(OC)cc1 (stereo not given)
test result: 5.13

Now consider the entry below.
Prompt: Name the reported pIC50 value associated with the molecule COC(=O)C1=C(C)N=C2Sc3ccccc3N2C1c1ccc(O)c(OC)c1 (stereo not given)
Completion: 5.44

These data points were gathered from ChEMBL document CHEMBL3616444.
